# testName: SAD study NP10679-101, plasma pharmacokinetics
# Assay type: in vivo, human
# measurementContext: human, plasma; Cohort 3, 50 mg single IV
measuredEndpoint: AUC(0-inf) (ng·h/mL)
Give just the number in ng·h/mL; leave the unit off.

INPUT: Would you kindly share the measured AUC(0-inf) for O=C1CCc2cc(OC[C@H](O)CN3CCN(c4ccc(C(F)(F)F)cc4)CC3)ccc2N1 ?
OUTPUT: 4680

* * *

# targetUnderTest: 5-HT1B (Homo sapiens (Human), UniProt P28222)
# Sequence (P28222 whole entry, species assumed): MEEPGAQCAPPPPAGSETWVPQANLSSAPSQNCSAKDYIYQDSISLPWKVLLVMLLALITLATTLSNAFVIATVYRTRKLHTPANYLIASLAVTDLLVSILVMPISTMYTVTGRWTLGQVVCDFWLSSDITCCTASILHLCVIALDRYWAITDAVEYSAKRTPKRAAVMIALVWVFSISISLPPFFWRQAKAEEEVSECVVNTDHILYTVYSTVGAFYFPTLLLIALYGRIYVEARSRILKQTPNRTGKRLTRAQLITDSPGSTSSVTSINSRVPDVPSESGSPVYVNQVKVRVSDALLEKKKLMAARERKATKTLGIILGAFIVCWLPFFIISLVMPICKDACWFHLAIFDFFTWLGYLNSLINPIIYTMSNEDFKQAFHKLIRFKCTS
# testName: Off-target radioligand binding displacement (NIMH PDSP)
# measurementContext: pH 7.4
measuredEndpoint: Ki

INPUT: Would you kindly share the measured Ki for O=C1CCc2cc(OC[C@H](O)CN3CCN(c4ccc(C(F)(F)F)cc4)CC3)ccc2N1 ?
OUTPUT: > 10 µM

* * *

# testName: in vivo
# measurementContext: male, BALB/c, mouse, plasma, ip, 2 mg/kg
measuredEndpoint: Cmax (ng/mL)
Give just the number in ng/mL; leave the unit off.

INPUT: Would you kindly share the measured Cmax for O=C1CCc2cc(OC[C@H](O)CN3CCN(c4ccc(C(F)(F)F)cc4)CC3)ccc2N1 ?
OUTPUT: 581

* * *

# testName: SAD study NP10679-101, plasma pharmacokinetics
# Format: in vivo, human
# measurementContext: human, plasma; Cohort 4, 100 mg single IV
measuredEndpoint: MRT (h)
Give just the number in h; leave the unit off.

INPUT: Would you kindly share the measured MRT for O=C1CCc2cc(OC[C@H](O)CN3CCN(c4ccc(C(F)(F)F)cc4)CC3)ccc2N1 ?
OUTPUT: 24.5

* * *

# testName: SAD study NP10679-101, plasma pharmacokinetics
# Format: in vivo, human
# measurementContext: human, plasma; Cohort 4, 100 mg single IV
measuredEndpoint: AUC(0-t)

INPUT: Would you kindly share the measured AUC(0-t) for O=C1CCc2cc(OC[C@H](O)CN3CCN(c4ccc(C(F)(F)F)cc4)CC3)ccc2N1 ?
OUTPUT: 9370 ng·h/mL

* * *

# testName: in vivo
# measurementContext: BALB/c, mouse, plasma, po, 10 mg/kg
measuredEndpoint: Tmax (h)
Give just the number in h; leave the unit off.

INPUT: Would you kindly share the measured Tmax for O=C1CCc2cc(OC[C@H](O)CN3CCN(c4ccc(C(F)(F)F)cc4)CC3)ccc2N1 ?
OUTPUT: 1

* * *

# testName: in vivo
# measurementContext: male, BALB/c, mouse, plasma, ip, 2 mg/kg
measuredEndpoint: half-life (h)
Give just the number in h; leave the unit off.

INPUT: Would you kindly share the measured half-life for O=C1CCc2cc(OC[C@H](O)CN3CCN(c4ccc(C(F)(F)F)cc4)CC3)ccc2N1 ?
OUTPUT: 9.9

* * *

# testName: SAD study NP10679-101, plasma pharmacokinetics
# Format: in vivo, human
# measurementContext: human, plasma; Cohort 2, 15 mg single IV
measuredEndpoint: AUC(0-t) (ng·h/mL)
Give just the number in ng·h/mL; leave the unit off.

INPUT: Would you kindly share the measured AUC(0-t) for O=C1CCc2cc(OC[C@H](O)CN3CCN(c4ccc(C(F)(F)F)cc4)CC3)ccc2N1 ?
OUTPUT: 1140

* * *

# testName: Pharmacokinetics in the brain compartment compared to plasma in mice
# Type: in vivo
# measurementContext: BALB/c, mouse, brain, intravenous, 3 mg/kg, 3 mg/kg IV, Study 2B, 1 hour; read-out: Brain Conc.
measuredEndpoint: concentration at 1 h (ng/g)
Give just the number in ng/g; leave the unit off.

INPUT: Would you kindly share the measured concentration at 1 h for O=C1CCc2cc(OC[C@H](O)CN3CCN(c4ccc(C(F)(F)F)cc4)CC3)ccc2N1 [NP10679] ?
OUTPUT: 2100

* * *

# testName: clinical
# measurementContext: human, plasma, intravenous, 25 mg
measuredEndpoint: half-life

INPUT: Would you kindly share the measured half-life for O=C1CCc2cc(OC[C@H](O)CN3CCN(c4ccc(C(F)(F)F)cc4)CC3)ccc2N1 ?
OUTPUT: 15.4 to 36.2 h

* * *

# testName: SAD study NP10679-101, plasma pharmacokinetics
# Format: in vivo, human
# measurementContext: human, plasma; Cohort 1, 5 mg single IV, harmonic mean; read-out: T1/2* (converted)
measuredEndpoint: half-life (h)
Give just the number in h; leave the unit off.

INPUT: Would you kindly share the measured half-life for O=C1CCc2cc(OC[C@H](O)CN3CCN(c4ccc(C(F)(F)F)cc4)CC3)ccc2N1 [NP10679] ?
OUTPUT: 27.6

* * *

# testName: SAD study NP10679-101, plasma pharmacokinetics
# Type: in vivo, human
# measurementContext: human, plasma; Cohort 6, 200 mg single IV
measuredEndpoint: MRT (h)
Give just the number in h; leave the unit off.

INPUT: Would you kindly share the measured MRT for O=C1CCc2cc(OC[C@H](O)CN3CCN(c4ccc(C(F)(F)F)cc4)CC3)ccc2N1 ?
OUTPUT: 21.9

* * *

# testName: in vivo
# measurementContext: male, BALB/c, mouse, plasma, ip, 5 mg/kg
measuredEndpoint: AUC(0-t) (ng·h/mL)
Give just the number in ng·h/mL; leave the unit off.

INPUT: Would you kindly share the measured AUC(0-t) for O=C1CCc2cc(OC[C@H](O)CN3CCN(c4ccc(C(F)(F)F)cc4)CC3)ccc2N1 ?
OUTPUT: 11800

* * *

# testName: SAD study NP10679-101, plasma pharmacokinetics
# Type: in vivo, human
# measurementContext: human, plasma; Cohort 6, 200 mg single IV
measuredEndpoint: AUC(0-inf) (ng·h/mL)
Give just the number in ng·h/mL; leave the unit off.

INPUT: Would you kindly share the measured AUC(0-inf) for O=C1CCc2cc(OC[C@H](O)CN3CCN(c4ccc(C(F)(F)F)cc4)CC3)ccc2N1 [NP10679] ?
OUTPUT: 20200

* * *

# targetUnderTest: human GluN1/GluN2B (Homo sapiens (Human), UniProt Q05586+Q13224)
# Sequence (Q13224 27-1484, other chains not shown): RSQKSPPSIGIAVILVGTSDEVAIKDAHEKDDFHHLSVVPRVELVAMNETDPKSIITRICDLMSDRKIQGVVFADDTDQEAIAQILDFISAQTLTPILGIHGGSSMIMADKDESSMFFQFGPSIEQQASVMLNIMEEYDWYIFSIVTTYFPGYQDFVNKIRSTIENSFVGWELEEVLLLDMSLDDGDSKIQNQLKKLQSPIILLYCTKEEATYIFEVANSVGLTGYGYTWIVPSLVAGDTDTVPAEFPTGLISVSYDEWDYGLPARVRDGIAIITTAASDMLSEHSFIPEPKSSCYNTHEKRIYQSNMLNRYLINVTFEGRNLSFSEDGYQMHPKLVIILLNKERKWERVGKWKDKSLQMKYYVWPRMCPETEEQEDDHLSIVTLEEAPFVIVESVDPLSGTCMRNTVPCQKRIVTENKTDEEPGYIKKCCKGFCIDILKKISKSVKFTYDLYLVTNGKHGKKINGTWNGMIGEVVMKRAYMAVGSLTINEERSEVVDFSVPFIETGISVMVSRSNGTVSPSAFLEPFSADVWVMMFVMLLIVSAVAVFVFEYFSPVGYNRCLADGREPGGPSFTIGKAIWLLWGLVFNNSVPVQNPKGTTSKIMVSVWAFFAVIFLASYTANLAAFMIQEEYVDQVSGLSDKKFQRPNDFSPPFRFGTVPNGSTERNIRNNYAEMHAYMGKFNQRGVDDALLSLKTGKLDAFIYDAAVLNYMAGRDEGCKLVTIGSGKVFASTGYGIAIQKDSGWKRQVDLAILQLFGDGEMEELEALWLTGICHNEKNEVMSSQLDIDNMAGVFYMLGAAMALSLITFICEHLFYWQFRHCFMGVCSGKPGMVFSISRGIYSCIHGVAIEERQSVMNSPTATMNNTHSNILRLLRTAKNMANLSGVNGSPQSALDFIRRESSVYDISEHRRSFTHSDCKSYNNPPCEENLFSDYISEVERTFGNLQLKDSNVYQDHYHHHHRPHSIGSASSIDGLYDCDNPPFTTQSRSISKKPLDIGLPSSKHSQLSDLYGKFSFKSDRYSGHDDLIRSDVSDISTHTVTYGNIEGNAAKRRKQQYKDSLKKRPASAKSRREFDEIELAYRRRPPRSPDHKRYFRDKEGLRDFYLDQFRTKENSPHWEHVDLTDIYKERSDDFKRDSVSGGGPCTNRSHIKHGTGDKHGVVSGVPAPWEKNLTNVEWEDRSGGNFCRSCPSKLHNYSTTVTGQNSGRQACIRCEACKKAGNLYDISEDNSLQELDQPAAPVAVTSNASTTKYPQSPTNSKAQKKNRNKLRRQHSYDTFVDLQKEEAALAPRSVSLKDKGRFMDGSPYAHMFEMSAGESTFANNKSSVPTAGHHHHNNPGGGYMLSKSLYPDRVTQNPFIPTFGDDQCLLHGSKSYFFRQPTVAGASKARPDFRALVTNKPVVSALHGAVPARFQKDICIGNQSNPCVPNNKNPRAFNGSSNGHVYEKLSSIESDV
# testName: Two electrode voltage-clamp recordings from Xenopus laevis oocytes, GluN2B potency and pH dependence
# Format: cell-based
# measurementContext: pH 7.6; read-out: IC50 (μM) pH 7.6
Attribute: IC50
Give just the number in µM; leave the unit off.

Consider the following illustrative entries.
INPUT: Would you kindly share the measured IC50 for CCc1ccc(N2CCN(C[C@@H](O)COc3ccc(NC(N)=O)cc3)CC2)cc1 ?
OUTPUT: 0.183

INPUT: // next record NC(=O)Nc1ccc(OC[C@@H](O)CN2CCN(c3ccc(Cl)cc3)CC2)cc1
OUTPUT: 0.452

INPUT: // next record NC(=O)Nc1ccc(OC[C@@H](O)CN2CCN(c3ccc(F)cc3)CC2)cc1
OUTPUT: 2.18

INPUT: // next record CCCc1ccc(N2CCN(C[C@H](O)COc3ccc(NC(N)=O)cc3)CC2)cc1
OUTPUT: 1.3

INPUT: // next record Oc1ccc(OC[C@H](O)CN2CCN(c3ccccc3)CC2)cc1
OUTPUT: 0.574

More entries:
INPUT: Would you kindly share the measured IC50 for Cc1ccc(N2CCN(C[C@H](O)COc3ccc(O)cc3)CC2)cc1 ?
OUTPUT: 0.26

INPUT: // next record CC(C)c1ccc(N2CCN(C[C@@H](O)COc3ccc(O)cc3)CC2)cc1
OUTPUT: 0.675

INPUT: // next record NC(=O)Nc1ccc(OC[C@@H](O)CN2CCN(c3ccc(Cl)c(Cl)c3)CC2)cc1
OUTPUT: 0.947

* * *

# testName: Pharmacokinetics in the brain compartment compared to plasma in mice
# Assay type: in vivo
# measurementContext: BALB/c, mouse, plasma, iv, 3 mg/kg, 3 mg/kg IV, Study 2B, 1 hour
measuredEndpoint: Cmax at 1 h (ng/mL)
Give just the number in ng/mL; leave the unit off.

INPUT: Would you kindly share the measured Cmax at 1 h for O=C1CCc2cc(OC[C@H](O)CN3CCN(c4ccc(C(F)(F)F)cc4)CC3)ccc2N1 ?
OUTPUT: 817

* * *

# testName: SAD study NP10679-101, plasma pharmacokinetics
# Type: in vivo, human
# measurementContext: human, plasma; Cohort 1, 5 mg single IV; read-out: Vss
measuredEndpoint: Vd (L)
Give just the number in L; leave the unit off.

INPUT: Would you kindly share the measured Vd for O=C1CCc2cc(OC[C@H](O)CN3CCN(c4ccc(C(F)(F)F)cc4)CC3)ccc2N1 [NP10679] ?
OUTPUT: 435

* * *

# testName: clinical
# measurementContext: human, plasma, intravenous, 25 mg
measuredEndpoint: Tmax
// unit must come after the numeric part

INPUT: Would you kindly share the measured Tmax for O=C1CCc2cc(OC[C@H](O)CN3CCN(c4ccc(C(F)(F)F)cc4)CC3)ccc2N1 ?
OUTPUT: 30 min

* * *

# testName: in vivo
# measurementContext: male, BALB/c, mouse, plasma, ip, 5 mg/kg
measuredEndpoint: Tmax (min)
Give just the number in min; leave the unit off.

INPUT: Would you kindly share the measured Tmax for O=C1CCc2cc(OC[C@H](O)CN3CCN(c4ccc(C(F)(F)F)cc4)CC3)ccc2N1 ?
OUTPUT: 30
